Test system: LOX IMVI melanoma
Experiment: NCI tumour cell line growth inhibition, 48 h
Tag: Fulfilled if measured TGI is not below 10 µM, Not fulfilled if it is.

Below, 5 compounds whose answers are already recorded.
| compound | category label |
| --- | --- |
| Cn1c(COC(=O)Nc2ccccc2)c(COC(=O)Nc2ccccc2)c2ccc3cc(Cl)c(Cl)cc3c21 | Fulfilled |
| Nc1ccc(-c2nc3ccc(Cc4ccc5nc(-c6ccc(N)cc6)[nH]c5c4)cc3[nH]2)cc1 | Not fulfilled |
| O=C1NC2OC(C(O)CO)C(O)C2O1 (stereo not given) | Fulfilled |
| Clc1ccc(C=Nc2ccc3c(c2)Cc2ccccc2-3)c(Cl)c1 | Fulfilled |
| Br[C](Br)(Br)[Hg][c]1ccccc1 | Fulfilled |

Inquiry: Exam item: decide whether the reported TGI for CCN1CCC(O)(/C=C/c2ccc(C)cc2C)C(C(=O)/C=C/c2ccc(C)cc2C)C1 (stereo not given) is at least 10 µM.
Reply text: Not fulfilled
